Assay: Cytotoxicity against mock-infected african green monkey Vero 76 cells after 48 to 96 hrs by MTT assay
Assay type: cell-based
Condition details: chlorocebus sabaeus, mock-infected Vero 76 cells
Quantity: CC50

Reference set, count: 5
FC(F)(F)c1ccc2c(c1)nc(-c1ccc(Cl)cc1)n2C[C@@H]1CCCN2CCCC[C@H]12 ... 24 µM
CC1(c2nc3ccccc3[nH]2)CCC(C(N)=O)C(C)(C)O1 (stereo unspecified) ... > 100 µM
FC(F)(F)c1ccc2c(c1)nc(Cc1ccccc1)n2C[C@@H]1CCCN2CCCC[C@H]12 ... > 100 µM
c1ccc2[nH]c(CCCC3NCC4CNCC3C4)nc2c1 (stereo unspecified) ... > 100 µM
FC(F)(F)c1ccc2c(c1)nc(Cc1ccc(Br)cc1)n2C[C@@H]1CCCN2CCCC[C@H]12 ... > 100 µM

INPUT: Which CC50 value belongs to Clc1cc2nc(C3CCCCO3)[nH]c2cc1Cl (stereo unspecified) ?
OUTPUT: > 100 µM

INPUT: Which CC50 value belongs to C[C@@]1(O)[C@H](O)[C@@H](CO)O[C@H]1n1cnc2c(=O)[nH]c(N)nc21 [2'-B-METHYL-GUANOSINE] ?
OUTPUT: > 100 µM

INPUT: Which CC50 value belongs to FC(F)(F)c1ccc2c(c1)nc(Cc1ccc(Cl)c(Cl)c1)n2C[C@H]1CCCN2CCCC[C@H]12 ?
OUTPUT: > 100 µM

INPUT: Which CC50 value belongs to COCCn1c(Cc2ccc(Cl)c(Cl)c2)nc2cc(C(F)(F)F)ccc21 ?
OUTPUT: > 100 µM

INPUT: Which CC50 value belongs to COc1ccc(-c2nc3cc(C(F)(F)F)ccc3n2CCN(C)C)cc1 ?
OUTPUT: > 100 µM

INPUT: Which CC50 value belongs to c1ccc2[nH]c(CC3CCCC3)nc2c1 ?
OUTPUT: > 100 µM

INPUT: Which CC50 value belongs to Nc1ccc(Cc2nc3cc(Cl)c(Cl)cc3[nH]2)cc1 ?
OUTPUT: 80 µM

====

Assay: Cytotoxicity against mock-infected african green monkey Vero 76 cells after 48 to 96 hrs by MTT assay
Format: cell-based
Condition details: chlorocebus sabaeus, mock-infected Vero 76 cells
Quantity: CC50

Reference set, count: 6
COc1ccc(-c2nc3cc(Cl)ccc3n2[C@@H]2CCCN3CCCC[C@H]23)cc1 ... > 100 µM
c1ccc2c(c1)Cn1c(nc3ccccc31)-c1ccccc1-2 ... 80 µM
CCc1nc2ccccc2[nH]1 ... > 100 µM
COc1ccc2c(c1)nnn1c3cc(Cl)c(Cl)cc3nc21 ... > 100 µM
Cc1ccc2nc(-c3ccc(F)cc3)n([C@H]3CCCN4CCCC[C@H]34)c2c1 ... > 100 µM
CC(=O)Nc1ccc(Cc2nc3cc(C(F)(F)F)ccc3[nH]2)cc1 ... > 100 µM

INPUT: Which CC50 value belongs to Clc1ccc(Cc2nc3cc(Cl)c(Cl)cc3n2C[C@@H]2CCCN3CCCC[C@H]23)cc1Cl ?
OUTPUT: > 100 µM

INPUT: Which CC50 value belongs to CCN(CC)CCCn1c(Cc2ccc(Cl)c(Cl)c2)nc2cc(C(F)(F)F)ccc21 ?
OUTPUT: > 100 µM

INPUT: Which CC50 value belongs to Clc1ccc2[nH]c(CCCC3NCC4CC3CN3CCCCC43)nc2c1 (configuration not stated) ?
OUTPUT: 59 µM

====

System: Bovine viral diarrhea virus 1
Assay: Antiviral activity against Bovine viral diarrhea virus infected in MDBK cells assessed as inhibition of virus-induced cytopathogenicity after 3 to 4 days by MTT assay
Assay type: functional, organism-based
Condition details: Bovine viral diarrhea virus isolates and strains
pEC50: −log10 of the molar value.
Catalogue of pEC50 values

Reference set, count: 6
Cc1ccc2nc(-c3ccc(F)cc3)n([C@H]3CCCN4CCCC[C@H]34)c2c1 ... < 4.00
FC(F)(F)c1ccc2c(c1)nc(Cc1ccccc1)n2C[C@@H]1CCCN2CCCC[C@H]12 ... < 4.00
CCCCn1c(-c2ccc(OC)cc2)nc2cc(C(F)(F)F)ccc21 ... < 4.00
NC(=O)c1ncn([C@@H]2O[C@H](CO)[C@@H](O)[C@H]2O)n1 ... 5.10
Clc1cc2nc(C3CCCCO3)[nH]c2cc1Cl (stereo not drawn) ... < 4.00
COc1ccc(-c2nc3cc(C(F)(F)F)ccc3n2C[C@H]2CCCN3CCCC[C@H]23)cc1 ... < 4.00

INPUT: Lab note: need pEC50 for c1ccc2c(c1)ncn2C1CCCCO1 (stereo not drawn) on Bovine viral diarrhea virus 1, anyone have it?
OUTPUT: < 4.00

INPUT: Lab note: need pEC50 for CCc1nc2ccccc2[nH]1 on Bovine viral diarrhea virus 1, anyone have it?
OUTPUT: < 4.00

INPUT: Lab note: need pEC50 for c1ccc2[nH]c(C3CCCCO3)nc2c1 (stereo not drawn) on Bovine viral diarrhea virus 1, anyone have it?
OUTPUT: < 4.00

====

Test system: Vesicular stomatitis virus
Assay: Antiviral activity against Vesicular stomatitis virus infected in african green monkey Vero 76 cells assessed as reduction in plaque number after 2 days by plaque reduction assay
Assay type: functional, organism-based
Condition details: 48 h
pEC50: −log10 of the molar value.
Quantity: pEC50

Reference set, count: 4
FC(F)(F)c1ccc2c(c1)nc(Cc1ccc(Br)cc1)n2C[C@@H]1CCCN2CCCC[C@H]12 ... < 4.00
c1ccc2[nH]c(C[C@H]3CCCN4CCCC[C@H]34)nc2c1 ... < 4.00
c1ccc(-c2nc3ccccc3n2[C@H]2CCCN3CCCC[C@H]23)cc1 ... 4.17
FC(F)(F)c1ccc2c(c1)nc(-c1ccc(Cl)cc1)n2C[C@@H]1CCCN2CCCC[C@H]12 ... < 4.00

Turning now to a further compound:
INPUT: Which pEC50 value belongs to FC(F)(F)c1ccc2c(c1)nc(C(F)(F)F)n2C[C@@H]1CCCN2CCCC[C@H]12 ?
OUTPUT: < 4.00

====

Catalogue of selectivity ratio values
Assay: Selectivity index, ratio of CC50 for african green monkey Vero 76 cells to EC50 for Coxsackievirus B5
Assay type: toxicity, cell-based
Condition details: read-out: Ratio CC50/EC50

INPUT: Which selectivity ratio value belongs to FC(F)(F)c1ccc2c(c1)nc(Cc1ccc(Cl)cc1)n2C[C@@H]1CCCN2CCCC[C@H]12 ?
OUTPUT: > 7.69

====

System: Respiratory syncytial virus
Assay: Antiviral activity against Respiratory syncytial virus infected in african green monkey Vero 76 cells assessed as reduction in plaque number after 5 days by plaque reduction assay
Format: functional, organism-based
Condition details: human respiratory syncytial virus, 120 h
Catalogue of EC50 values

INPUT: Which EC50 value belongs to FC(F)(F)c1ccc2c(c1)nc(Cc1ccccc1)n2C[C@@H]1CCCN2CCCC[C@H]12 ?
OUTPUT: > 100 µM

====

Catalogue of EC50 values
System: Respiratory syncytial virus
Assay: Antiviral activity against Respiratory syncytial virus infected in african green monkey Vero 76 cells assessed as reduction in plaque number after 5 days by plaque reduction assay
Format: functional, organism-based
Condition details: human respiratory syncytial virus, 120 h
// note: answer is a bare numeric in µM

Reference set, count: 3
CCC/C=C(\CC)c1nc2ccccc2[nH]1 ... 22
FC(F)(F)c1ccc2c(c1)nc(C(F)(F)F)n2C[C@@H]1CCCN2CCCC[C@H]12 ... 22
Clc1cc2nc(Cc3ccc(Br)cc3)n(C[C@@H]3CCCN4CCCC[C@H]34)c2cc1Cl ... 9

Turning now to a further compound:
INPUT: Which EC50 value belongs to CCCCn1c(Cc2ccc(Cl)c(Cl)c2)nc2cc(C(F)(F)F)ccc21 ?
OUTPUT: 9

====

Catalogue of CC50 values
Assay: Cytotoxicity against mock-infected MDBK cells after 48 to 96 hrs by MTT assay
Type: cell-based, Bos taurus
Condition details: cattle
// note: answer is a bare numeric in µM

Clc1ccc2[nH]c(CCCC3NCC4CC3CN3CCCCC43)nc2c1 (stereo not given) ... 56

Turning now to a further compound:
INPUT: Which CC50 value belongs to FC(F)(F)c1ccc2c(c1)nc(Cc1ccc(Cl)c(Cl)c1)n2C[C@@H]1CCCN2CCCC[C@H]12 ?
OUTPUT: 37

====

Assay: Cytotoxicity against mock-infected african green monkey Vero 76 cells after 48 to 96 hrs by MTT assay
Type: cell-based
Condition details: chlorocebus sabaeus, mock-infected Vero 76 cells
Label yes when CC50 is strictly below 80 µM; otherwise label no.

CCN(CC)CCCn1c(-c2ccc(OC)cc2)nc2cc(C(F)(F)F)ccc21 ... no
Clc1cc2nc(Cc3ccc(Br)cc3)[nH]c2cc1Cl ... yes
Cc1nc2cc(C(F)(F)F)ccc2n1C[C@@H]1CCCN2CCCC[C@H]12 ... no
c1ccc2[nH]c(CCCC3NCC4CC3CN3CCCCC43)nc2c1 (centres undefined) ... no

INPUT: Here's an entry: Clc1ccc2[nH]c(C[C@@H]3CCCN4CCCC[C@H]34)nc2c1 . Is its CC50 below 80 µM?
OUTPUT: no

INPUT: Here's an entry: COc1ccc(-c2nc3cc(C(F)(F)F)ccc3n2C[C@@H]2CCCN3CCCC[C@H]23)cc1 . Is its CC50 below 80 µM?
OUTPUT: yes

Attribution: ChEMBL document CHEMBL3351523
